The origin of these recorded values is patent US20240083853A1.

measured-on: Recombinant human HSD17B13 enzyme (Homo sapiens)
protocol-summary: HSD17b13 NAD(P)H-Glo biochemical assay
measurement-context: 50 uM estradiol, 1 mM NAD+, NAD(P)H-Glo luminescence; read-out: HSD17β13 IC50
pIC50: −log10 of the molar value.

| compound | measured-on | pIC50 |
| --- | --- | --- |
| Oc1c(F)cc2ncn(-c3ccc(N4CC5(CCOCC5)C4)cc3)c2c1F | Recombinant human HSD17B13 enzyme (Homo sapiens) | 6.00 to 7.00 |
| CS(=O)(=O)N1CCN(c2ccc(-n3ncc4c(Cl)c(F)c(O)cc43)cc2)CC1 | Recombinant human HSD17B13 enzyme (Homo sapiens) | 6.00 to 7.00 |
| CC1(C)CCN(c2cnc(-n3nnc4cc(F)c(O)c(F)c43)cn2)CC1 | Recombinant human HSD17B13 enzyme (Homo sapiens) | > 7.00 |
| Oc1cc2c(cnn2-c2ccc(-c3ccc(O)c(Cl)c3)cc2)cc1F | Recombinant human HSD17B13 enzyme (Homo sapiens) | 6.00 to 7.00 |
| COC1CCN(c2ccc(-n3ncc4cc(F)c(O)c(F)c43)cc2)C1 (centres unmarked) | Recombinant human HSD17B13 enzyme (Homo sapiens) | > 7.00 |
| CS(=O)(=O)N1CCN(c2cnc(-n3ncc4cc(F)c(O)c(F)c43)nc2)CC1 | Recombinant human HSD17B13 enzyme (Homo sapiens) | 6.00 to 7.00 |
| Oc1cccc(-c2ccc(-n3ncc4c(Cl)c(F)c(O)cc43)cc2)c1 | Recombinant human HSD17B13 enzyme (Homo sapiens) | 6.00 to 7.00 |
| CC1(O)CCN(c2ccc(-n3ncc4cc(F)c(O)c(F)c43)cc2)CC1 | Recombinant human HSD17B13 enzyme (Homo sapiens) | 6.00 to 7.00 |

----------
measured-on: Recombinant human HSD17B13 enzyme (Homo sapiens, UniProt Q7Z5P4)
Sequence (Q7Z5P4 20-300): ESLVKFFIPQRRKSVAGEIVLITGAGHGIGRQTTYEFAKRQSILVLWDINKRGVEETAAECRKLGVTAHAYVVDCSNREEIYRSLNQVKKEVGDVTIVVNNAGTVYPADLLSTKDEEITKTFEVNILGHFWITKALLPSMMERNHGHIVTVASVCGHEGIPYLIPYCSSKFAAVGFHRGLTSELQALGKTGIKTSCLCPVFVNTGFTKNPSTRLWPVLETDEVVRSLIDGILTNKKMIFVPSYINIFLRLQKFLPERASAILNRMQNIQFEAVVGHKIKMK
protocol-summary: HSD17b13 NAD(P)H-Glo biochemical assay
measurement-context: 50 uM estradiol, 1 mM NAD+, NAD(P)H-Glo luminescence; read-out: HSD17β13 IC50
pIC50: −log10 of the molar value.
pIC50 values, listed per item
endpoint-name: pIC50

| record-smiles | endpoint-name | observed |
| --- | --- | --- |
| Nc1cccc(-c2ccc(-n3ncc4cc(F)c(O)cc43)cc2)c1 | pIC50 | 4.52 to 6.00 |
| Oc1cc2c(cnn2-c2ccc(-c3ccccc3O)cc2)cc1F | pIC50 | 6.00 to 7.00 |
| CCC1(CC)CCN(c2ccc(-n3ncc4cc(F)c(O)c(F)c43)cc2)CC1 | pIC50 | > 7.00 |
| [O-][S+]1CC2(CN(c3ccc(-n4ncc5cc(F)c(O)c(F)c54)cc3)C2)C1 | pIC50 | 6.00 to 7.00 |
| CC(C)C1CCN(c2ccc(-n3ncc4cc(F)c(O)c(F)c43)cc2)CC1 | pIC50 | > 7.00 |
| Oc1c(F)cc2cnn(-c3ccc(C4=CCCCC4)cc3)c2c1F | pIC50 | > 7.00 |
| CS(=O)(=O)N1CCCN(c2ccc(-n3ncc4cc(F)c(O)c(F)c43)cc2)CC1 | pIC50 | 6.00 to 7.00 |
| Oc1c(F)cc2cnn(-c3ncc(-c4ccc(Cl)cc4)cn3)c2c1F | pIC50 | > 7.00 |

----------
measured-on: Recombinant human HSD17B13 enzyme (Homo sapiens, UniProt Q7Z5P4)
Sequence (Q7Z5P4 20-300): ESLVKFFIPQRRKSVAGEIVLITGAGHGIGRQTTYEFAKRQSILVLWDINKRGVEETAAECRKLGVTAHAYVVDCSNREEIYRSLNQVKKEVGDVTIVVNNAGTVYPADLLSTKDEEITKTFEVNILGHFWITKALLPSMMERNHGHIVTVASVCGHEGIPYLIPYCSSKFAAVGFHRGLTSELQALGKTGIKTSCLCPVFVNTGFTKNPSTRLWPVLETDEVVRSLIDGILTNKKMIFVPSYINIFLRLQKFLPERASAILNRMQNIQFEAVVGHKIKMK
protocol-summary: HSD17b13 NAD(P)H-Glo biochemical assay
measurement-context: 50 uM estradiol, 1 mM NAD+, NAD(P)H-Glo luminescence; read-out: HSD17β13 IC50
pIC50: −log10 of the molar value.
pIC50 values, listed per item

| compound | pIC50 |
| --- | --- |
| CC1CN(c2ccc(-n3ncc4cc(F)c(O)c(F)c43)cc2)CCO1 (centres unmarked) | > 7.00 |
| Oc1cc2c(cnn2-c2ccc(-c3cccc(F)c3)cc2)cc1F | 6.00 to 7.00 |
| CS(=O)(=O)c1ccccc1-c1ccc(-n2ncc3cc(F)c(O)cc32)cc1 | 4.52 to 6.00 |
| COC1CCN(c2ccc(-n3ncc4cc(F)c(O)c(F)c43)cc2)CC1 | > 7.00 |
| CC1(C)CCN(c2cnc(-n3nnc4cc(F)c(O)c(F)c43)nc2)CC1 | > 7.00 |

----------
inhibition at 10 µM values, listed per item
measured-on: Recombinant human HSD17B13 enzyme (Homo sapiens, UniProt Q7Z5P4)
protocol-summary: HSD17b13 NAD(P)H-Glo biochemical assay
measurement-context: 3 h; at 10 uM compound; read-out: HSD17β13 % at 10 uM

| record-smiles | lt-gt-eq | inhibition at 10 µM / % |
| --- | --- | --- |
| CC1(C)CCN(c2ccc(-n3ncc4cnc(O)c(F)c43)cc2)CC1 | < | 20 |
| CS(=O)(=O)N1CCN(c2cnc(-n3nnc4cc(F)c(O)c(F)c43)nc2)CC1 | = | 45 |
| Cc1c(O)c(F)cc2cnn(-c3ccc(N4CCN(S(C)(=O)=O)CC4)cc3)c12 | = | 35 |
| CS(=O)(=O)N1CCN(c2ccc(-n3ncc4cnc(O)c(F)c43)cc2)CC1 | < | 20 |
| CS(=O)(=O)N1CCN(c2ccc(-n3ncc4ccc(O)cc43)cc2)CC1 | = | 35 |
| CC1(C)CCN(c2ccc(-n3cnc4cc(F)c(O)cc43)cc2)CC1 | = | 35 |
| CS(=O)(=O)N1CCN(c2ccc(-n3ncc4cc(F)c(O)nc43)cc2)CC1 | = | 35 |
| Cc1nc2cc(F)c(O)c(F)c2n1-c1ccc(N2CCC(C)(C)CC2)cc1 | = | 35 |

----------
pIC50 values, listed per item
measured-on: Recombinant human HSD17B13 enzyme (Homo sapiens)
protocol-summary: HSD17b13 NAD(P)H-Glo biochemical assay
measurement-context: 50 uM estradiol, 1 mM NAD+, NAD(P)H-Glo luminescence; read-out: HSD17β13 IC50
pIC50: −log10 of the molar value.

| record-smiles | pIC50 |
| --- | --- |
| Cn1c(=O)c2cc(F)c(O)c(F)c2n1-c1ccc(N2CCC(C)(C)CC2)cc1 | 6.00 to 7.00 |
| CS(=O)(=O)N1CCN(c2ccc(-n3ncc4cc(F)c(O)c(F)c43)cc2F)CC1 | 6.00 to 7.00 |
| CC1(C)CCN(c2ncc(-n3ncc4cc(F)c(O)c(F)c43)cn2)CC1 | > 7.00 |
| Oc1c(F)cc2nnn(-c3ccc(N4CCOC[C@H]4c4ccccc4)cc3)c2c1F | 6.00 to 7.00 |
| CC1(C)CCN(c2ccc(-n3nnc4cc(F)c(O)c(F)c43)cn2)CC1 | > 7.00 |
| Oc1cc2c(nnn2-c2ccc(N3CC4(CCOCC4)C3)cc2)c(C(F)(F)F)c1F | 6.00 to 7.00 |
| CC1(C)CCN(c2ccc(-n3ncc4c(C(F)(F)F)c(F)c(O)nc43)cc2)CC1 | 4.52 to 6.00 |
| CC1(C)CN(c2ccc(-n3ncc4cc(F)c(O)c(F)c43)cc2)CCO1 | > 7.00 |

----------
pIC50 values, listed per item
measured-on: Recombinant human HSD17B13 enzyme (Homo sapiens)
protocol-summary: HSD17b13 NAD(P)H-Glo biochemical assay
measurement-context: 50 uM estradiol, 1 mM NAD+, NAD(P)H-Glo luminescence; read-out: HSD17β13 IC50
Procedure: Example B-1: HSD17b13 NAD(P)H-Glo Biochemical Assay Recombinant human HSD17B13 enzyme. Substrate: estradiol (Sigma β-Estradiol E8875), 100 mM in DMSO. Cofactor: NAD+ Grade I free acid (Sigma 10127965001), 20 mM in H2O. […] Enzymatic activity detected by NAD(P)H-Glo™ Detection System (Promega G9062). […] HSD17b13 enzyme was diluted in 1× assay buffer to the desired enzyme concentration based on the specific activity of the enzyme lot. […] After incubating for 1 hour at RT, luminescence was measured.
pIC50: −log10 of the molar value.
endpoint-name: pIC50

| molecule | measured-on | endpoint-name | observed |
| --- | --- | --- | --- |
| CS(=O)(=O)N1CCC2(CC1)CN(c1ccc(-n3ncc4cc(F)c(O)c(F)c43)cc1)C2 [Compound 20.22] | Recombinant human HSD17B13 enzyme (Homo sapiens) | pIC50 | 6.00 to 7.00 |
| CC1(C)CCN(c2ccc(-n3ccc4cc(F)c(O)c(F)c43)cc2)CC1 [Compound 6.2] | Recombinant human HSD17B13 enzyme (Homo sapiens) | pIC50 | 6.00 to 7.00 |
| CC1(C)CCN(c2ccc(-n3c(=O)sc4cc(F)c(O)c(F)c43)cc2)CC1 [Compound 7.3] | Recombinant human HSD17B13 enzyme (Homo sapiens) | pIC50 | 6.00 to 7.00 |
| CS(=O)(=O)N1CCN(c2ccc(-n3ncc4cc(F)c(O)c(F)c43)cc2)CC1 [Compound 19] | Recombinant human HSD17B13 enzyme (Homo sapiens) | pIC50 | 6.00 to 7.00 |
| Oc1c(F)cc2cnn(-c3ccc(N4CCC4)cc3)c2c1F [Compound 23.12] | Recombinant human HSD17B13 enzyme (Homo sapiens) | pIC50 | 6.00 to 7.00 |
| NS(=O)(=O)c1cccc(-c2ccc(-n3ncc4cc(F)c(O)cc43)cc2)c1 [Compound 13.37] | Recombinant human HSD17B13 enzyme (Homo sapiens) | pIC50 | 6.00 to 7.00 |
| Oc1c(F)cc2cnn(-c3ccc(-c4ccncc4)cc3)c2c1F [Compound 14.4] | Recombinant human HSD17B13 enzyme (Homo sapiens) | pIC50 | > 7.00 |
| Cc1c(O)c(F)cc2cnn(-c3ccc(-c4cccc(O)c4)cc3)c12 [Compound 4.3] | Recombinant human HSD17B13 enzyme (Homo sapiens) | pIC50 | 6.00 to 7.00 |
| Oc1cccc(-c2ccc(-n3ncc4c(F)c(F)c(O)c(F)c43)cc2)c1 [Compound 15.4] | Recombinant human HSD17B13 enzyme (Homo sapiens) | pIC50 | 6.00 to 7.00 |
| Oc1cc2c(nnn2-c2ccc(N3CC4(CCOCC4)C3)cc2)c(Cl)c1F [Compound 40] | Recombinant human HSD17B13 enzyme (Homo sapiens) | pIC50 | > 7.00 |
| CS(=O)(=O)N1CCC(c2ccc(-n3cnc4cc(F)c(O)c(F)c43)cc2)CC1 [Compound 28] | Recombinant human HSD17B13 enzyme (Homo sapiens) | pIC50 | > 7.00 |
| Oc1ccc(-c2ccc(-n3ncc4cc(Cl)c(O)cc43)cc2)cc1 [Compound 2.5] | Recombinant human HSD17B13 enzyme (Homo sapiens) | pIC50 | 6.00 to 7.00 |
| Oc1c(F)cc2cnn(-c3ccc(-c4ccc(Cl)cc4)cn3)c2c1F [Compound 18.3] | Recombinant human HSD17B13 enzyme (Homo sapiens) | pIC50 | > 7.00 |
| C[C@@H]1CN(c2ccc(-n3ncc4cc(F)c(O)c(F)c43)cc2)C[C@H](C)S1 [Compound 32.4] | Recombinant human HSD17B13 enzyme (Homo sapiens) | pIC50 | > 7.00 |
| CC1(C)CN(c2ccc(-n3ncc4cc(F)c(O)c(F)c43)cc2)C1 [Compound 23.13] | Recombinant human HSD17B13 enzyme (Homo sapiens) | pIC50 | > 7.00 |
| CS(=O)(=O)c1ccc(-c2ccc(-n3ncc4cc(F)c(O)cc43)cc2)cc1 [Compound 13.26] | Recombinant human HSD17B13 enzyme (Homo sapiens) | pIC50 | 6.00 to 7.00 |
| CC1(C)CCN(c2ccc(-n3cnc4cc(F)c(O)c(F)c43)cc2)CC1 [Compound 21.5] | Recombinant human HSD17B13 enzyme (Homo sapiens) | pIC50 | > 7.00 |
